METHOD SUMMARY: Metabolic stability in human liver microsomes assessed as parent compound remaining
Assay type: ADME, Microsome
OBSERVABLE: Stability (%)
The reply should contain only the number, in %.

compound `Cn1c(=O)c([N+](=O)[O-])c(N2CCN(C(c3ccc(F)cc3)c3ccc(F)cc3)CC2)c2nc(C#N)ccc21` , Stability observed: 90

compound `COc1ccc2c(c1)c(N1CCN(C(c3ccc(F)cc3)c3ccc(F)cc3)CC1)c([N+](=O)[O-])c(=O)n2C` , Stability observed: 79

compound `COc1ccc2c(n1)c(N1CCN(C(c3ccc(F)cc3)c3ccc(F)cc3)CC1)c(C#N)c(=O)n2C` , Stability observed: 100

compound `CN(C)c1ccc2c(c1)c(N1CCN(C(c3ccc(F)cc3)c3ccc(F)cc3)CC1)c([N+](=O)[O-])c(=O)n2C` , Stability observed: 69

compound `Cn1c(=O)cc(N2CCN(C(c3ccccc3)c3ccccc3)CC2)c2ccccc21` , Stability observed: 93

New cases:
compound `Cn1c(=O)c([N+](=O)[O-])c(N2CCN(C(c3ccc(F)cc3)c3ccc(F)cc3)CC2)c2cc(C#N)ccc21` , Stability observed: 97

compound `Cn1c(=O)c([N+](=O)[O-])c(N2CCN(C(c3ccc(F)cc3)c3ccc(F)cc3)CC2)c2cnccc21` , Stability observed: 100

compound CC(c1ccccc1)N1CCN(c2c([N+](=O)[O-])c(=O)n(C)c3ccccc23)CC1 (stereo not drawn) , Stability observed: 25

* * *

METHOD SUMMARY: Cmax in C57BL6 mouse at 5 mg/kg, po administered as bolus dose measured upto 72 hrs by LC/MS/MS analysis
Format: ADME, organism-based
Parameters: dose 5 mg/kg, time < 72 hrs, route po
RUN CONDITIONS: in vivo
OBSERVABLE: Cmax (nM)
The reply should contain only the number, in nM.

compound `Cn1c(=O)c([N+](=O)[O-])c(N2CCN(C(c3ccc(F)cc3)c3ccc(F)cc3)CC2)c2nc(C#N)ccc21` , Cmax observed: 1080

* * *

METHOD SUMMARY: AUClast in C57BL6 mouse at 1 mg/kg, iv administered as bolus dose measured upto 72 hrs by LC/MS/MS analysis
Type: ADME, organism-based
Parameters: dose 1 mg/kg, time < 72 hrs, route iv
RUN CONDITIONS: in vivo
OBSERVABLE: AUC(0-t) at 72 h (µM·h)
The reply should contain only the number, in µM·h.

compound `Cn1c(=O)c([N+](=O)[O-])c(N2CCN(C(c3ccc(F)cc3)c3ccc(F)cc3)CC2)c2nc(C#N)ccc21` , AUC(0-t) at 72 h observed: 14.8

* * *

As shown below, each of these molecules has a reported IC50 value.
TARGET ENTITY: UniProt P23743
Sequence (P23743 whole entry): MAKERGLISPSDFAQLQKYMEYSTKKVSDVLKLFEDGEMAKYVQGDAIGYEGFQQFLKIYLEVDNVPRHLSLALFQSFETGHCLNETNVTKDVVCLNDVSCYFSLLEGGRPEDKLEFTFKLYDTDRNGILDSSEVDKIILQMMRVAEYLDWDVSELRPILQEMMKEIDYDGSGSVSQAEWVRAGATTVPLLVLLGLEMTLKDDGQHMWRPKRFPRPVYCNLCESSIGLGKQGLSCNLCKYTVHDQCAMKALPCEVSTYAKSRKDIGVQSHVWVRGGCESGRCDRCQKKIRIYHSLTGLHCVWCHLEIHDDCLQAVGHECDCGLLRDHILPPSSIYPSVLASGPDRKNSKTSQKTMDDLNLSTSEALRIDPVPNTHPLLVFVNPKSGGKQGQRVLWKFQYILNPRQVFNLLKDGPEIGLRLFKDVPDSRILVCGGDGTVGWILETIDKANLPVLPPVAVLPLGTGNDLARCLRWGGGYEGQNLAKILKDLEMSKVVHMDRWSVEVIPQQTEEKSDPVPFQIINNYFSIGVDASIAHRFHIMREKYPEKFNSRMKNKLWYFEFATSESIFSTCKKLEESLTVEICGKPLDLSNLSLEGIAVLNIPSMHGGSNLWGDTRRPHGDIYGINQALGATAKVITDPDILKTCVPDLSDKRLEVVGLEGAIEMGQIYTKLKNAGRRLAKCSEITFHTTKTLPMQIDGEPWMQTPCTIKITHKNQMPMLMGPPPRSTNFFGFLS
METHOD SUMMARY: Inhibition of human DGK alpha using 1, 2-Dilauroyl-sn-glycerol as substrate by ADP-Glo assay
The reply should contain only the number, in nM.

Please review the entries below; each comes with its answer.
For `Cn1c(=O)c([N+](=O)[O-])c(N2CCN(C(c3ccc(F)cc3)c3ccc(F)cc3)CC2)c2cc(C#N)ccc21` on UniProt P23743, measured IC50 was 34

For `Cn1c(=O)c([N+](=O)[O-])c(N2CCN(C(c3ccc(F)cc3)c3ccc(F)cc3)CC2)c2ncccc21` on UniProt P23743, measured IC50 was 53

For `Cn1c(=O)c([N+](=O)[O-])c(N2CCN(C(c3ccc(F)cc3)c3ccc(F)cc3)CC2)c2nc(C#N)ccc21` on UniProt P23743, measured IC50 was 5

For `O=C1/C(=C/C=C/c2ccco2)SC(=S)N1NS(=O)(=O)c1ccccc1` on UniProt P23743, measured IC50 was 600

New cases:
For O=c1c2ccccc2[nH]c(=S)n1CCN1CCC(=C(c2ccc(F)cc2)c2ccc(F)cc2)CC1 [DIACYLGLYCEROL KINASE INHIBITOR II] on UniProt P23743, measured IC50 was 4300

For `Cn1c(=O)c([N+](=O)[O-])c(N2CCN(C(c3ccccc3)c3ccccc3)CC2)c2ccccc21` on UniProt P23743, measured IC50 was 15

Data provenance is ChEMBL document CHEMBL5360601.
